# Tested on: K4 kissing-loop RNA reporter;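 also: bound reporter read as fluorescence of individual clusters on recovered sequencing chips by microscopy, with normalized cluster intensities fitted with a binding model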
# Assay name: apparent KD of K4 kissing-loop reporter; higher = weaker reporter binding
# Assay setup: Eterna round: R107; input ligand: tryptophan 2.4 mM
Reported apparent KD of K4 kissing-loop reporter values follow for various sequences
Field: numeric (nM). Do not append units.

Example cases with answers are listed next.
Macromolecule sequence	apparent KD of K4 kissing-loop reporter / nM
UCUGCAAAGUCGGCCGCCACUCCGGGCCCUAUAAAUGGGCGCAGUGAUGUUGCGGCUAGGCCUCUGAGGACCGGGACUUUGUAGA [Atlesoqu]	246
GGAUCCUAGGCGGCCGCCACUCCAAUUGGCCGAAAGGCCUGAUACCGAGUGAUGUUCGGUUGGAGGAGGACCGGGCCUAGGAUCC [#2 Exclusion - Tryptophan B Attempt #2 (HarryS)]	104
GGCACGUUCCCUUGAUCAGUGAUGUUGUUUCGAGGACCGGUACGGCCGCCACUCGCUCGGCGUUCGCCCAGGCCCGGAAAACUGC [theeternabot_exclusion_KL_Trp_A_13]	225
GAUUGGCGGACGGCCGCCACUCGGACGAGUCACAGUGAUGUUGUGGUUUGCCAGUCGACUUCAUCGAGGACCGGGUUUGUCGGGC [Exclusion Tryptophan B GF 21]	349

Alright, here's another sequence for you.
I'd like to know its apparent KD of K4 kissing-loop reporter. The sequence in question is GAUUCAGUGAUGUUGGAAGGCGAGCGGGAUACCAGCCGAGACUCAGGCCCUUGGCAGCCCACAUAUCCCAGGUAGAUAGUAGAUC [Same State - Theophylline A (Freestyle 8)] 135

Origin of the recorded values: the supplement of paper PMC9170038
